Data origin: patent US20210380703A1

Reported Phospho-SMAD3 Human Skeletal Muscle GDF8 values for a set of binders
Tested On: ACVR2A on primary human myotubes (human, UniProt P27037 20-513)
Sequence (P27037 20-513): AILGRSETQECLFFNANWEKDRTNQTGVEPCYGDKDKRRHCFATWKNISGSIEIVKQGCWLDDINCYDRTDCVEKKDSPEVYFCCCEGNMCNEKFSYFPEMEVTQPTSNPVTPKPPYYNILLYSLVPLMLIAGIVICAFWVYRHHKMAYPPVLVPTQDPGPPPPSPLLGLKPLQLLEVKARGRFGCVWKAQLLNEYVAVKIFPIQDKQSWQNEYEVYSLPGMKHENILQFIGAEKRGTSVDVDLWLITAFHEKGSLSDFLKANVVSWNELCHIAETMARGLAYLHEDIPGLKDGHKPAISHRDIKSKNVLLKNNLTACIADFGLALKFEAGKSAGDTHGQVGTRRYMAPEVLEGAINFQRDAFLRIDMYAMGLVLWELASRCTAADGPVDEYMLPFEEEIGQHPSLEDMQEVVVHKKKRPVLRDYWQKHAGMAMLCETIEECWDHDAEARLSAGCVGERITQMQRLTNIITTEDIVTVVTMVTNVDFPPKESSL
Assay Remarks: cell-based or functional assay
Measured Metric: Phospho-SMAD3 Human Skeletal Muscle GDF8

{"Binder": "365_E07 (antibody, V domains shown) VH: EVQLLESGGGLVQPGGSLRLSCAASGFTFDSYGMHWVRQAPGKGLEWVSGINYNSGYTSYADSVKGRFTISRDNSKNTLYLQMNSLRAEDTAVYYCAKSANWHDTHLDYWGQGTLVTVSS VL: DIQMTQSPSSLSASVGDRVTITCRASQSILSYLNWYQQKPGKAPKLLIYAATSRASGVPSRFSGSGSGTDFTLTISSLQPEDFATYYCQQSYDNPLTFGGGTKVEIK", "Measured Result": 0.518}
{"Binder": "369_D02 (antibody, V domains shown) VH: EVQLLESGGGLVQPGGSLRLSCAASGFTFSDYSMNWVRQAPGKGLEWVSNINYNSGYTGYADSVKGRFTISRDNSKNTLYLQMNSLRAEDTAVYYCARSANWHDTALDYWGQGTLVTVSS VL: DIQMTQSPSSLSASVGDRVTITCRASQSILSYLNWYQQKPGKAPKLVIYAVTSRASGVPSRFSGSGSGTDFTLTISSLQPEDFATYYCQQSYDTPLTFGGGTKVEIK", "Measured Result": 0.0135}
{"Binder": "374_C10 (antibody, V domains shown) VH: EVQLLESGGGLVQPGGSLRLSCAASGFTFSSYSMNWVRQAPGKGLEWVSSINYNGGYKGYADSVKGRFTISRDNSKNTLYLQMNSLRAEDTAVYYCARGATWHDTHLDYWGQGTLVTVSS VL: DIQMTQSPSSLSASVGDRVTITCRASQSIVTYLNWYQQKPGKAPKLLIYAATSLASGVPSRFSGSGSGTDFTLTISSLQPEDFATYYCQQSYNTPLTFGGGTKVEIK", "Measured Result": 0.0582}
